FYI, the data here is from patent US20250214986A1.

Test: Dynamic solubility experiment at 37° C.
Format: physicochemical
Conditions: H2O, 24 h
Where a name gives a salt, the structure may show the parent alone.
Quantity kind: Crystalline form change

• Cc1cnc(-c2cc(O[C@@H](C)[C@@H](C)O)cc(C(=O)N[C@H](C)c3cnc(C(F)(F)F)nc3)c2F)s1 [Crystalline form A of hydrochloride] = Yes^a
• Cc1cnc(-c2cc(O[C@@H](C)[C@@H](C)O)cc(C(=O)N[C@H](C)c3cnc(C(F)(F)F)nc3)c2F)s1 [Crystalline form A of p-toluenesulfonate] = Yes^a
• Cc1cnc(-c2cc(O[C@@H](C)[C@@H](C)O)cc(C(=O)N[C@H](C)c3cnc(C(F)(F)F)nc3)c2F)s1 [Crystalline form A of maleate] = Yes^a
• Cc1cnc(-c2cc(O[C@@H](C)[C@@H](C)O)cc(C(=O)N[C@H](C)c3cnc(C(F)(F)F)nc3)c2F)s1 [Free base crystalline form A] = No

###

Experiment: Dynamic solubility experiment at 37° C.
Type: physicochemical
Details: FeSSIF, 37 °C, pH 5, fessif, thermodynamic from solid, FeSSIF, 24 h, read-out: S: solubility
Quantity kind: solubility at 24 h

Recall and state the measured solubility at 24 h for Cc1cnc(-c2cc(O[C@@H](C)[C@@H](C)O)cc(C(=O)N[C@H](C)c3cnc(C(F)(F)F)nc3)c2F)s1 [Free base crystalline form A] .
25 µg/mL

###

Measured HPLC purity Relative to starting (%) by item
Experiment: Solid state stability (XRPD and HPLC)
Format: physicochemical
Settings: 25° C./60% RH/uncovered, 1 week
Where a name gives a salt, the structure may show the parent alone.
The response must be a number in % with no trailing unit.

• Cc1cnc(-c2cc(O[C@@H](C)[C@@H](C)O)cc(C(=O)N[C@H](C)c3cnc(C(F)(F)F)nc3)c2F)s1 [Crystalline form A of p-toluenesulfonate] = 100.00
• Cc1cnc(-c2cc(O[C@@H](C)[C@@H](C)O)cc(C(=O)N[C@H](C)c3cnc(C(F)(F)F)nc3)c2F)s1 [Crystalline form A of maleate] = 100.00
• Cc1cnc(-c2cc(O[C@@H](C)[C@@H](C)O)cc(C(=O)N[C@H](C)c3cnc(C(F)(F)F)nc3)c2F)s1 [Free base crystalline form A] = 100.01

Now for a further compound.
State its HPLC purity Relative to starting (%): Cc1cnc(-c2cc(O[C@@H](C)[C@@H](C)O)cc(C(=O)N[C@H](C)c3cnc(C(F)(F)F)nc3)c2F)s1 [Crystalline form A of hydrochloride]
99.98

###

Each entry below carries its reported S: solubility.
Assay: Dynamic solubility experiment at 37° C.
Type: physicochemical
Settings: SGF, 4 h
Experimental: In the test, the purity, dynamic solubility and stability were tested using an Agilent 1260 high-performance liquid chromatograph, the molar ratio of salt-forming ions was tested using ion chromatography, and the analytical conditions are shown in Tables A-4 and A-5 below. Solids at a feeding concentration of 10 mg/mL (calculated based on free base) were rotationally mixed with corresponding vehicles at 37° C. […] The HPLC concentrations and pH values of the filtrates were determined. […]
Structures can show the parent of a compound that is named as a salt.
Respond numerically; units are µg/mL and should not be typed.

// known answers, use as guide
* Cc1cnc(-c2cc(O[C@@H](C)[C@@H](C)O)cc(C(=O)N[C@H](C)c3cnc(C(F)(F)F)nc3)c2F)s1 [Crystalline form A of p-toluenesulfonate] | 33
* Cc1cnc(-c2cc(O[C@@H](C)[C@@H](C)O)cc(C(=O)N[C@H](C)c3cnc(C(F)(F)F)nc3)c2F)s1 [Crystalline form A of maleate] | 10
* Cc1cnc(-c2cc(O[C@@H](C)[C@@H](C)O)cc(C(=O)N[C@H](C)c3cnc(C(F)(F)F)nc3)c2F)s1 [Free base crystalline form A] | 13

Kindly indicate its recorded S: solubility. Item: Cc1cnc(-c2cc(O[C@@H](C)[C@@H](C)O)cc(C(=O)N[C@H](C)c3cnc(C(F)(F)F)nc3)c2F)s1 [Crystalline form A of hydrochloride]
11

###

Test: Hygroscopicity by dynamic vapor sorption (DVS)
Type: physicochemical
Conditions: DVS, 25° C./80% RH
Counter-ions that a name gives are not always drawn.
Quantity kind: hygroscopicity

- Cc1cnc(-c2cc(O[C@@H](C)[C@@H](C)O)cc(C(=O)N[C@H](C)c3cnc(C(F)(F)F)nc3)c2F)s1 [Crystalline form A of maleate]: slight hygroscopicity
- Cc1cnc(-c2cc(O[C@@H](C)[C@@H](C)O)cc(C(=O)N[C@H](C)c3cnc(C(F)(F)F)nc3)c2F)s1 [Free base crystalline form A]: slight hygroscopicity
- Cc1cnc(-c2cc(O[C@@H](C)[C@@H](C)O)cc(C(=O)N[C@H](C)c3cnc(C(F)(F)F)nc3)c2F)s1 [Crystalline form A of hydrochloride]: slight hygroscopicity

###

Assay: Dynamic solubility experiment at 37° C.
Type: physicochemical
Settings: SGF, 1 h
Method: In the test, the purity, dynamic solubility and stability were tested using an Agilent 1260 high-performance liquid chromatograph, the molar ratio of salt-forming ions was tested using ion chromatography, and the analytical conditions are shown in Tables A-4 and A-5 below. Solids at a feeding concentration of 10 mg/mL (calculated based on free base) were rotationally mixed with corresponding vehicles at 37° C. […] The HPLC concentrations and pH values of the filtrates were determined. […]
Counter-ions that a name gives are not always drawn.
The compounds listed here are annotated with their pH of filtrate.
Write no unit; give the number alone.

Please review the following examples before continuing.
- Cc1cnc(-c2cc(O[C@@H](C)[C@@H](C)O)cc(C(=O)N[C@H](C)c3cnc(C(F)(F)F)nc3)c2F)s1 [Crystalline form A of hydrochloride]: 1.6
- Cc1cnc(-c2cc(O[C@@H](C)[C@@H](C)O)cc(C(=O)N[C@H](C)c3cnc(C(F)(F)F)nc3)c2F)s1 [Free base crystalline form A]: 1.8
- Cc1cnc(-c2cc(O[C@@H](C)[C@@H](C)O)cc(C(=O)N[C@H](C)c3cnc(C(F)(F)F)nc3)c2F)s1 [Crystalline form A of maleate]: 1.7

Continue with the next compound.
Report pH of filtrate for Cc1cnc(-c2cc(O[C@@H](C)[C@@H](C)O)cc(C(=O)N[C@H](C)c3cnc(C(F)(F)F)nc3)c2F)s1 [Crystalline form A of p-toluenesulfonate]
1.5

###

Test: Dynamic solubility experiment at 37° C.
Type: physicochemical
Conditions: SGF, 4 h
Structures can show the parent of a compound that is named as a salt.
Quantity kind: pH of filtrate
The response must contain the number and no unit.

Examples with answers:
- Cc1cnc(-c2cc(O[C@@H](C)[C@@H](C)O)cc(C(=O)N[C@H](C)c3cnc(C(F)(F)F)nc3)c2F)s1 [Free base crystalline form A]: 1.8
- Cc1cnc(-c2cc(O[C@@H](C)[C@@H](C)O)cc(C(=O)N[C@H](C)c3cnc(C(F)(F)F)nc3)c2F)s1 [Crystalline form A of hydrochloride]: 1.6
- Cc1cnc(-c2cc(O[C@@H](C)[C@@H](C)O)cc(C(=O)N[C@H](C)c3cnc(C(F)(F)F)nc3)c2F)s1 [Crystalline form A of p-toluenesulfonate]: 1.5

Now for the compound whose pH of filtrate we want.
Report pH of filtrate, nothing else, for this compound: Cc1cnc(-c2cc(O[C@@H](C)[C@@H](C)O)cc(C(=O)N[C@H](C)c3cnc(C(F)(F)F)nc3)c2F)s1 [Crystalline form A of maleate]
1.7

###

S: solubility for assorted compounds
Assay: Dynamic solubility experiment at 37° C.
Format: physicochemical
Conditions: FeSSIF, 4 h
Where a name gives a salt, the structure may show the parent alone.
Provide only the numeric value, understood in µg/mL.

Some solved cases for reference:
• Cc1cnc(-c2cc(O[C@@H](C)[C@@H](C)O)cc(C(=O)N[C@H](C)c3cnc(C(F)(F)F)nc3)c2F)s1 [Crystalline form A of hydrochloride] = 27
• Cc1cnc(-c2cc(O[C@@H](C)[C@@H](C)O)cc(C(=O)N[C@H](C)c3cnc(C(F)(F)F)nc3)c2F)s1 [Free base crystalline form A] = 23

Give the reported S: solubility for this compound. Cc1cnc(-c2cc(O[C@@H](C)[C@@H](C)O)cc(C(=O)N[C@H](C)c3cnc(C(F)(F)F)nc3)c2F)s1 [Crystalline form A of maleate]
20

Give a short answer stating reported S: solubility for Cc1cnc(-c2cc(O[C@@H](C)[C@@H](C)O)cc(C(=O)N[C@H](C)c3cnc(C(F)(F)F)nc3)c2F)s1 [Crystalline form A of p-toluenesulfonate] .
81

###

Experiment: Dynamic solubility experiment at 37° C.
Format: physicochemical
Settings: SGF, 1 h
Where a name gives a salt, the structure may show the parent alone.
Quantity kind: Crystalline form change

* Cc1cnc(-c2cc(O[C@@H](C)[C@@H](C)O)cc(C(=O)N[C@H](C)c3cnc(C(F)(F)F)nc3)c2F)s1 [Crystalline form A of maleate] | Yes^a
* Cc1cnc(-c2cc(O[C@@H](C)[C@@H](C)O)cc(C(=O)N[C@H](C)c3cnc(C(F)(F)F)nc3)c2F)s1 [Free base crystalline form A] | No
* Cc1cnc(-c2cc(O[C@@H](C)[C@@H](C)O)cc(C(=O)N[C@H](C)c3cnc(C(F)(F)F)nc3)c2F)s1 [Crystalline form A of hydrochloride] | Yes^a
